# measurement_target: Bcl-2 protein (histag-Bcl-2, UniProtKB P10415) (Homo sapiens (Human), UniProt P10415)
# Sequence (P10415 whole entry): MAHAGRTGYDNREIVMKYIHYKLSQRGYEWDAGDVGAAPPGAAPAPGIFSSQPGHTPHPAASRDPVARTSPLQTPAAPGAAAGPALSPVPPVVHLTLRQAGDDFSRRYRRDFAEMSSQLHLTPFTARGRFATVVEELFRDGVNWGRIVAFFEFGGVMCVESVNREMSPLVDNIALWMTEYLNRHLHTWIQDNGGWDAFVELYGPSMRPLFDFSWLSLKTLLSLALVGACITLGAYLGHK
# experiment_description: Inhibition of Bcl-2 by the fluorescence polarisation technique
# Type: binding
# protocol_conditions: incubation for 2 hours, read-out: IC50 (nM) Bcl-2 FP
Where a name gives a salt, the structure may show the parent alone.
property_name: IC50 (nM)
Numbers only, in nM.

[[record]]
compound = "Cc1c(C(=O)N(c2ccc(O)cc2)c2cnccn2)cc(-c2cc(Cl)ccc2C(=O)N2Cc3ccccc3C[C@H]2CN2CCOCC2)n1C [Example 438, hydrochloride]"
value_reported = 11.3

[[record]]
compound = "COc1cc(C(=O)N2Cc3ccccc3C[C@H]2CN2CCOCC2)c(-c2cc(C(=O)N(c3ccc(O)cc3)c3cnc4c(ccn4C)c3)c(C)n2C)cc1F [Example 209, hydrochloride]"
value_reported = 7.4


Reading of IC50 for Cc1c(C(=O)N(c2ccccc2)c2ccc(O)cc2)cc(-c2cc3c(cc2C(=O)N2Cc4ccccc4C[C@H]2CN2CCOCC2)OCO3)n1C [Example 15, hydrochloride] with Bcl-2 protein (histag-Bcl-2, UniProtKB P10415) (Homo sapiens (Human), UniProt P10415): 11.1

# credit: patent US9108983B2
